Let's look at some compounds and their measured IC50.
# Assay Explanation: Inhibition of cholesterol uptake in MDCK2 cells expressing human NPC1L1 after 1 hr by liquid scintillation counting
# Assay type: cell-based
# Assay Context: Canis lupus familiaris, MDCK-II
Provide the reading as a plain figure in µM.

1) O=C1[C@H](NC[C@H](O)c2ccc(F)cc2)[C@@H](c2ccc(O)cc2)N1c1ccc(F)cc1; 80

Query compound follows.
Ask: For the compound `O=C1[C@H](NC[C@@H](O)c2ccc(F)cc2)[C@@H](c2ccc(O)cc2)N1c1ccc(F)cc1` , report IC50.
Reply: 60

Recorded values, source ChEMBL document CHEMBL3352061.
